All values here come from the supplement of paper PMC9112550.

- System: Escherichia coli TOP10;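 note: peptides expressed intracellularly from a pBAD plasmid library in pooled LB shake-flask culture, induced with 0.3% L-arabinose, DNA abundance read by NGS, three biological replicates, DESeq2 with apeglm shrinkage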
- experiment notes: shrunken log2 fold change of peptide-encoding DNA abundance (4.5 h post-induction vs induction); higher = less antimicrobial activity (less host growth inhibition)
- measurement setup: time post-induction: 4.5 h; library: site-saturation at positions 5, 18, 19, 20
Would you mind labelling by shrunken log2 fold change? At or over 0.04 is TRUE, under is FALSE.

Use the examples below as a reference point.
primary sequence | assigned category
RRIRVRPPRLPRPRPRPMPEPRP | FALSE
RRIRMRPPRLPRPRPRPSWMPRP | FALSE
RRIRERPPRLPRPRPRPHCWPRP | FALSE
RRIRLRPPRLPRPRPRPATTPRP | TRUE
RRIRWRPPRLPRPRPRPPLKPRP | TRUE

INPUT: Does RRIRNRPPRLPRPRPRPQCAPRP have a reported shrunken log2 fold change of at least 0.04?
OUTPUT: FALSE

INPUT: Does RRIRHRPPRLPRPRPRPEATPRP have a reported shrunken log2 fold change of at least 0.04?
OUTPUT: TRUE
